target: Lysine-specific demethylase 4E (Homo sapiens); assay: qHTS Assay for Inhibitors of Human Jumonji Domain Containing 2E (JMJD2E); conditions: JMJD2E catalytic domain, FDH-coupled NADH fluorescence (FDH is formaldehyde dehydrogenase); series mostly up to 57.1 µM; further: nearly all actives have a fitted effect of over 50% in size
Screen size: about 230,000 compounds; about 3,600 (1.6%) were called active. Inconclusive results (about 15%) are left out. The call rests on the fitted dose curve; in most records, active means well fitted inhibition curve with a large enough effect (not every such curve was filed as active); inconclusive means small, poorly fitted or top-dose-only effect, or another doubt; inactive means no such curve, though single readings can be large or run the other way. The list comes from a sample in which actives are over-represented; it also holds close analogues and randomly drawn compounds.
Can you answer with just one of these options? active, inactive

Data request: Record request — test call for `COc1c(O)cc2oc(-c3ccc(O)c(O)c3)cc(=O)c2c1O`
Data returned: active

Data request: Record request — test call for COc1cccc(N2C(=O)CC(N3CCc4ccccc4C3)C2=O)c1 (centres undefined)
Data returned: inactive

Data request: Record request — test call for `N#C/C(=C\c1ccc(O)c(O)c1)C(N)=O`
Data returned: active

Data request: Record request — test call for `Cc1c([N+](=O)[O-])c(N)nn1C`
Data returned: inactive

Data request: Record request — test call for `Cc1ccc(/C=N/NC(=O)C2=NNC(c3ccccc3)(c3ccccc3)C2)c(O)c1`
Data returned: active

Data request: Record request — test call for `Cc1csc(NC(=O)NC2(C(F)(F)F)Oc3ccccc3O2)n1`
Data returned: inactive

Data request: Record request — test call for `Nc1cccc(S(=O)(=O)Nc2ccc(SC(F)F)cc2)c1`
Data returned: inactive

Data request: Record request — test call for Cc1cc(C)n(CC(C)NCc2c(C(=O)N3CCOCC3)nc3c(C)cccn23)n1 (centres undefined)
Data returned: inactive

Data request: Record request — test call for `CCOC(=O)COc1cc(O)c2c(=O)cc(-c3ccccc3)oc2c1`
Data returned: inactive

Data request: Record request — test call for `CN(C)S(=O)(=O)c1cccc(C(=O)Nc2cccnc2)c1`
Data returned: inactive

Data request: Record request — test call for `CC(=O)N1CCC(N(C(=O)Nc2ccc(Cl)cc2)C(C)C)CC1`
Data returned: inactive

Data request: Record request — test call for `O=c1[nH]c(=S)[nH]c2[nH]c(=S)[nH]c12`
Data returned: active

Data request: Record request — test call for `O=c1cc(-c2ccc(O)c(O)c2)oc2cccc(O)c12`
Data returned: active

Data request: Record request — test call for `CC(C)(C)C(=O)/C(C#N)=C/c1ccc(O)cc1`
Data returned: inactive

Data request: Record request — test call for `NC(=O)c1ccc(N2CCOCC2)nc1`
Data returned: inactive

Data request: Record request — test call for `c1cnn(-c2cc(N3CCOCC3)ncn2)c1`
Data returned: inactive

Data request: Record request — test call for Cc1ccc(CN2CCN(Cc3cn(C)nc3-c3ccccc3)CC2CCO)o1 (centres undefined)
Data returned: inactive

Data request: Record request — test call for `O=[N+]([O-])c1ccccc1NCc1ccc(Cl)cc1`
Data returned: inactive

Data request: Record request — test call for `Oc1ccc(CNc2ccccc2O)cc1`
Data returned: active

Data request: Record request — test call for `O=C(c1cccnc1)N(c1cc2sc(=O)oc2c2ccccc12)S(=O)(=O)c1ccccc1`
Data returned: active

Data request: Record request — test call for Cc1cc(C)c(NC(=O)CS(=O)CC(=O)Nc2cccnc2)c(C)c1 (centres undefined)
Data returned: inactive

Data request: Record request — test call for `COc1ccc2c(=O)cc(-c3ccccc3)oc2c1O`
Data returned: inactive

Data request: Record request — test call for O=C(Nc1cc(N2CCOCC2)ncn1)NC1(C(F)(F)F)Oc2ccc(Cl)cc2O1 (centres undefined)
Data returned: active

Data request: Record request — test call for `CCNc1nc(NCC)nc(N/N=C/c2ccc(O)c(OC)c2)n1`
Data returned: inactive
